molecular target: Beta-secretase 1 (Homo sapiens); assay: Inhibition of BACE1 at 0.2 uM
Readout Label: inhibition (%)

Here's what some known entries look like.
CC(C)C[C@H](NC(=O)[C@@H](NC(=O)[C@@H](N)CCC(=O)O)C(C)C)C(=O)N[C@@H](Cc1ccccc1)[C@@H](O)C(=O)Nc1cc(C(=O)O)cc(C(=O)O)c1	84.3
CC(C)C[C@H](NC(=O)[C@@H](NC(=O)[C@@H](N)CCC(=O)O)C(C)C)C(=O)N[C@@H](Cc1ccccc1)[C@@H](O)C(=O)Nc1cccc(-c2noc(=O)[nH]2)c1	66.3
CC(C)C[C@H](NC(=O)[C@@H](NC(=O)[C@@H](N)CCC(=O)O)C(C)C)C(=O)N[C@@H](Cc1ccccc1)[C@@H](O)C(=O)Nc1cccc(-c2nsc(=O)[nH]2)c1	63.2

(P) CC(C)C[C@H](NC(=O)[C@@H](NC(=O)[C@@H](N)CCC(=O)O)C(C)C)C(=O)N[C@@H](Cc1ccccc1)[C@@H](O)C(=O)Nc1cccc(-c2noc(=S)[nH]2)c1
(Q) CC(C)C[C@H](NC(=O)[C@@H](NC(=O)[C@@H](N)CCC(=O)O)C(C)C)C(=O)N[C@@H](Cc1ccccc1)[C@@H](O)C(=O)Nc1cccc(C(=O)O)c1
For the two items P and Q , which reports the higher inhibition value? Lab note: record the label of whichever item you select.
P
(P: 68.4%, Q: 44.4%)

* * *

biological target: Beta-secretase 1 (Homo sapiens, UniProt P56817); assay: Inhibition of BACE1 at 0.2 uM
Sequence (P56817 whole entry): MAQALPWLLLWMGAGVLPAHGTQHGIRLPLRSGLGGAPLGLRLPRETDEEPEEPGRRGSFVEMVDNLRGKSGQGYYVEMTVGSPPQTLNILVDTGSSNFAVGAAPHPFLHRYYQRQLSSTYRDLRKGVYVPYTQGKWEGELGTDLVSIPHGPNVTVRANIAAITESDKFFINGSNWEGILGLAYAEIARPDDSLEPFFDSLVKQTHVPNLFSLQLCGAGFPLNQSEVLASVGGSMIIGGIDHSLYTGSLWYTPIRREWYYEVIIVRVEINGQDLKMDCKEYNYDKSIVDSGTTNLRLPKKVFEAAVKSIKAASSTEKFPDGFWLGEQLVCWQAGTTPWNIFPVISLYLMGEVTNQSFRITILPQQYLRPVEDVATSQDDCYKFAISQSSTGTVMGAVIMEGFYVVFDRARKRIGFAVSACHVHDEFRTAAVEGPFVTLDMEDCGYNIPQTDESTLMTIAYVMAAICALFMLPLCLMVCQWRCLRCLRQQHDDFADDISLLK
Readout Label: inhibition (%)

CC(C)C[C@H](NC(=O)[C@@H](NC(=O)[C@@H](N)CCC(=O)O)C(C)C)C(=O)N[C@@H](Cc1ccccc1)[C@@H](O)C(=O)Nc1cc(-c2nn[nH]n2)cc(-c2nn[nH]n2)c1	94
CC(C)C[C@H](NC(=O)[C@@H](NC(=O)[C@@H](N)CCC(=O)O)C(C)C)C(=O)N[C@@H](Cc1ccccc1)[C@@H](O)C(=O)Nc1cccc(-c2nn[nH]n2)c1	73.7
CC(C)C[C@H](NC(=O)[C@@H](NC(=O)[C@@H](N)CNC(=O)c1nn[nH]n1)C(C)C)C(=O)N[C@@H](Cc1ccccc1)[C@@H](O)C(=O)Nc1cc(-c2nn[nH]n2)cc(-c2nn[nH]n2)c1	100
CC(C)C[C@H](NC(=O)[C@@H](NC(=O)[C@@H](N)CNC(=O)c1nn[nH]n1)C(C)C)C(=O)N[C@@H](Cc1ccccc1)[C@@H](O)C(=O)Nc1cccc(-c2noc(O)n2)c1	94.2

* * *

biological target: Beta-secretase 1 (Homo sapiens, UniProt P56817); assay: Inhibition of BACE1
Readout Label: IC50 (nM)

CC(C)C[C@H](NC(=O)[C@@H](NC(=O)[C@@H](N)CNC(=O)c1nnn[nH]1)C(C)C)C(=O)N[C@@H](Cc1ccccc1)[C@@H](O)C(=O)Nc1cccc(-c2nnn[nH]2)c1	4.8
CC(C)C[C@H](NC(=O)[C@@H](NC(=O)[C@@H](N)CCC(=O)O)C(C)C)C(=O)N[C@@H](Cc1ccccc1)[C@@H](O)C(=O)Nc1cc(-c2nn[nH]n2)cc(-c2nn[nH]n2)c1	6.4
CC(C)C[C@H](NC(=O)[C@@H](NC(=O)[C@@H](N)CNC(=O)c1nn[nH]n1)C(C)C)C(=O)N[C@@H](Cc1ccccc1)[C@@H](O)C(=O)Nc1cccc(-c2noc(O)n2)c1	6.6
CC(C)C[C@H](NC(=O)[C@@H](NC(=O)[C@@H](N)CNC(=O)c1nnn[nH]1)C(C)C)C(=O)N[C@@H](Cc1ccccc1)[C@@H](O)C(=O)Nc1cc(-c2nnn[nH]2)cc(-c2nnn[nH]2)c1	1.2
